Reported TGI values for a set of compounds
# System: MOLT-4 leukemia
# protocol text: NCI tumour cell line growth inhibition, 48 h
Where a SMILES comes first, the peptide text is derived from it.

These solved cases illustrate the format of a correct answer.
# compound, TGI
data = [
    ("CC(C)CC(NC(=O)C(CC(C)C)NC(=O)C(Cc1cnc[nH]1)NC(=O)C(C)NC(=O)C(NC(=O)C(C)NC(=O)C(Cc1c[nH]c2ccccc12)NC(=O)C(CCC(=O)O)NC(=O)C(N)Cc1ccccc1)C(C)C)C(N)=O (stereo not drawn) (H-FEWAVAHLL-NH2; configuration not given here)", "> 100 µM"),
    ("NC(=O)N/N=C(\\C(=O)C(=O)Nc1ccc(Cl)c(C(F)(F)F)c1)c1nc2ccc(C(=O)c3ccccc3)cc2[nH]c1=O", "> 100 µM"),
]

Item CC(=O)NC(CCCCNC(=O)N(CCCl)N=O)C(=O)NCc1ccccc1 (stereo not drawn) was tested on MOLT-4 leukemia; the reported TGI is > 100 µM

Tested on MOLT-4 leukemia, the item CC(=O)OCc1cc(OC(C)=O)cnc1COC(C)=O showed TGI equal to > 100 µM

Fill in: MOLT-4 leukemia TGI for COC(=O)C1=NN2c3ccccc3C(=O)OCCC2(C)C1 (stereo not drawn) = > 100 µM

Lab entry: MOLT-4 leukemia assay, compound COc1ccc(/C=C(\C#N)c2nc(N)nc(N3N=C(C)CC3(C)C)n2)c(O)c1 , TGI = 34.1 µM

Tested on MOLT-4 leukemia: COC(=O)C(=O)C(C(=O)C(=O)Nc1ccc(Cl)cc1C)c1nc2ccc(C(=O)c3ccccc3)cc2[nH]c1=O (stereo not drawn) . Observed TGI: > 100 µM

Measured TGI for this entry CC1(C)CC(=O)C2=C(C1)NC(SSC1=C(C#N)C(c3ccc(F)cc3)C3=C(CC(C)(C)CC3=O)N1)=C(C#N)C2c1ccc(F)cc1 (stereo not drawn) on MOLT-4 leukemia: 118 µg/mL
